So I've got Ki readings for Proteasome Macropain subunit MB1 (Homo sapiens, UniProt P28074), take a look.
// units = nM; emit number, no label

Take a look at these entries with their results.
[
  {
    "query-smiles": "C[C@H](NC(=O)[C@H](Cc1ccc(OCc2ccccc2)cc1)NC(=O)CCCCCNC(=O)CCCCCNC(=O)CCCCCNC(=O)CCCCC(=O)N[C@@H](Cc1ccc(OCc2ccccc2)cc1)C(=O)N[C@@H](C)C(=O)N[C@@H](C[C@]1(O)C(=O)Nc2ccccc21)C(=O)NCc1ccccc1)C(=O)N[C@@H](C[C@]1(O)C(=O)Nc2ccccc21)C(=O)NCc1ccccc1",
    "Ki (nM)": 10.3
  },
  {
    "query-smiles": "C[C@H](NC(=O)[C@H](Cc1ccc(OCc2ccccc2)cc1)NC(=O)CCCCCNC(=O)CCCCCNC(=O)CCCCCNC(=O)CCCCCNC(=O)CCCCC(=O)N[C@@H](Cc1ccc(OCc2ccccc2)cc1)C(=O)N[C@@H](C)C(=O)N[C@@H](C[C@]1(O)C(=O)Nc2ccccc21)C(=O)NCc1ccccc1)C(=O)N[C@@H](C[C@]1(O)C(=O)Nc2ccccc21)C(=O)NCc1ccccc1",
    "Ki (nM)": 10.8
  },
  {
    "query-smiles": "C[C@H](NC(=O)[C@H](Cc1ccc(OCc2ccccc2)cc1)NC(=O)CCCCCNC(=O)CCCCCNC(=O)CCCCCNC(=O)CCCCCNC(=O)CCCCCNC(=O)CCCCC(=O)N[C@@H](Cc1ccc(OCc2ccccc2)cc1)C(=O)N[C@@H](C)C(=O)N[C@@H](C[C@]1(O)C(=O)Nc2ccccc21)C(=O)NCc1ccccc1)C(=O)N[C@@H](C[C@]1(O)C(=O)Nc2ccccc21)C(=O)NCc1ccccc1",
    "Ki (nM)": 11.4
  }
]

Which Ki is reported for this compound? C[C@H](NC(=O)[C@H](Cc1ccc(OCc2ccccc2)cc1)NC(=O)CCCCCNC(=O)CCCCCNC(=O)CCCCCNC(=O)CCCCC(=O)NCCCCCC(=O)NCCCCCC(=O)NCCCCCC(=O)N[C@@H](Cc1ccc(OCc2ccccc2)cc1)C(=O)N[C@@H](C)C(=O)N[C@@H](C[C@]1(O)C(=O)Nc2ccccc21)C(=O)NCc1ccccc1)C(=O)N[C@@H](C[C@]1(O)C(=O)Nc2ccccc21)C(=O)NCc1ccccc1
10.6

Cool, now C[C@H](NC(=O)[C@H](Cc1ccc(OCc2ccccc2)cc1)NC(=O)CCCCCNC(=O)CCCCCNC(=O)CCCCCNC(=O)CCCCCNC(=O)CCCCC(=O)NCCCCCC(=O)NCCCCCC(=O)NCCCCCC(=O)NCCCCCC(=O)N[C@@H](Cc1ccc(OCc2ccccc2)cc1)C(=O)N[C@@H](C)C(=O)N[C@@H](C[C@]1(O)C(=O)Nc2ccccc21)C(=O)NCc1ccccc1)C(=O)N[C@@H](C[C@]1(O)C(=O)Nc2ccccc21)C(=O)NCc1ccccc1
6

Follow-up item: C/C=C\NC(=O)[C@H]1NC(=O)[C@H](CC(N)=O)CC(=O)[C@@H](NC(=O)C(=O)[C@@H](C)CC)Cc2ccc(O)c(c2)-c2cccc3c2NC(=O)[C@@]3(O)[C@@H]1O
2.3

---

assay-details: Half life of the compound in RPMI culture medium in presence of 20% fetal calf serum at 37 degC by HPLC analysis
Type: physicochemical
measurement-context: cattle, RPMI culture medium with 20% fetal calf serum
reported-metric: half-life (min)

[
  {
    "query-smiles": "C[C@H](NC(=O)[C@H](Cc1ccc(OCc2ccccc2)cc1)NC(=O)CCCCCNC(=O)CCCCCNC(=O)CCCCCNC(=O)CCCCC(=O)N[C@@H](Cc1ccc(OCc2ccccc2)cc1)C(=O)N[C@@H](C)C(=O)N[C@@H](C[C@]1(O)C(=O)Nc2ccccc21)C(=O)NCc1ccccc1)C(=O)N[C@@H](C[C@]1(O)C(=O)Nc2ccccc21)C(=O)NCc1ccccc1",
    "readout-unit": "min",
    "half-life": 3000
  }
]

I = C[C@H](NC(=O)[C@H](Cc1ccc(OCc2ccccc2)cc1)NC(=O)CCCCCNC(=O)CCCCCNC(=O)CCCCCNC(=O)OC(C)(C)C)C(=O)N[C@@H](C[C@]1(O)C(=O)Nc2ccccc21)C(=O)NCc1ccccc1
II = C[C@H](NC(=O)[C@H](Cc1ccc(OCc2ccccc2)cc1)NC(=O)OC(C)(C)C)C(=O)N[C@@H](C[C@]1(O)C(=O)Nc2ccccc21)C(=O)NCc1ccccc1
Looking at recorded values for half-life, does I or II come in lower? Mark your answer with the label of the selected entry.
I
(I: 1140 min, II: 3000 min)
